- Tested on: Yap1 mRNA
- TEST METHOD NOTES: Dose-dependent inhibition of human Yap1 in A-431 cells (Example 6, 5,000 cells per well, RTS4814)
- Format: cell-based
- TEST CONDITIONS: Table 53; A-431 cells, free uptake, 4000 nM, approximately 48 hours, RTS4814
Strand notation (5' to 3'): a small letter for the sugar, then the base; units joined by * are phosphorothioate-linked, units joined directly phosphodiester-linked; [ ] holds rarer units or linkages, { } end groups; capitals alone tell only the bases. k = constrained ethyl (cEt); [5mC] = 5-methylcytosine; d = 2'-deoxy (DNA)
Label rule, in plain words: % UTC 4000 nM of 40 % UTC and up is satisfied, under 40 % UTC is not satisfied.

Record excerpt, results attached:
[
  {
    "SUBSTANCE": "715510 (kA*kT*kT*dT*dG*d[5mC]*dT*dG*dT*dG*d[5mC]*dT*dG*kG*kG*kA; antisense) [compound 715510]",
    "CLASSIFICATION": "satisfied"
  },
  {
    "SUBSTANCE": "715415 (k[5mC]*kG*kA*dA*d[5mC]*dA*dT*dG*d[5mC]*dT*dG*dT*dG*kG*kA*kG; antisense) [compound 715415]",
    "CLASSIFICATION": "satisfied"
  }
]

Prompt line: Exam item: decide whether the reported % UTC 4000 nM for 715523 (kA*kT*k[5mC]*dA*dG*dT*dA*d[5mC]*dT*dG*dG*d[5mC]*d[5mC]*kT*kA*kT; antisense) [compound 715523] is at least 40 % UTC.
Response line: satisfied

Prompt line: Reported % UTC 4000 nM at or above 40 % UTC? 715423 (k[5mC]*k[5mC]*kA*dT*dG*dT*dT*dG*dT*dT*dG*dT*d[5mC]*kT*kG*kA; antisense) [compound 715423]
Response line: satisfied

---

- System: Yap1 mRNA
- TEST METHOD NOTES: Dose-dependent inhibition of human Yap1 in A-431 cells (Example 6, 5,000 cells per well, RTS4814)
- Format: cell-based
- TEST CONDITIONS: Table 53; A-431 cells, free uptake, 444 nM, approximately 48 hours, RTS4814
Strand notation (5' to 3'): a small letter for the sugar, then the base; units joined by * are phosphorothioate-linked, units joined directly phosphodiester-linked; [ ] holds rarer units or linkages, { } end groups; capitals alone tell only the bases. k = constrained ethyl (cEt); [5mC] = 5-methylcytosine; d = 2'-deoxy (DNA)
Label T when % UTC 444 nM is at or above 70 % UTC; anything below gets F.

[
  {
    "SUBSTANCE": "715483 (k[5mC]*kT*k[5mC]*dT*dT*dT*dG*dG*dA*dA*dA*d[5mC]*d[5mC]*kA*kT*kT) [compound 715483]",
    "CLASSIFICATION": "F"
  },
  {
    "SUBSTANCE": "715486 (kT*kA*k[5mC]*dT*dT*d[5mC]*dA*dT*dA*dG*d[5mC]*dT*dT*kA*kT*kA; antisense) [compound 715486]",
    "CLASSIFICATION": "T"
  },
  {
    "SUBSTANCE": "715415 (k[5mC]*kG*kA*dA*d[5mC]*dA*dT*dG*d[5mC]*dT*dG*dT*dG*kG*kA*kG; antisense) [compound 715415]",
    "CLASSIFICATION": "F"
  }
]

We next turn to a different substance, shown below.
Prompt line: // inclusive: % UTC 444 nM at least 70 % UTC? input: 715577 (kG*k[5mC]*kA*dT*dT*d[5mC]*dA*d[5mC]*dA*dG*dA*dG*dT*kT*kA*kA; antisense) [compound 715577]
Response line: T

---

- Test system: Yap1 mRNA
- TEST METHOD NOTES: Antisense inhibition of human Yap1 in SNU-449 cells by modified oligonucleotides, single dose (Example 5, RTS36584)
- Type: cell-based
- TEST CONDITIONS: Table 51; Yap1 mRNA remaining as percent of untreated control (UT), SNU-449 cells, single dose
Strand notation (5' to 3'): a small letter for the sugar, then the base; units joined by * are phosphorothioate-linked, units joined directly phosphodiester-linked; [ ] holds rarer units or linkages, { } end groups; capitals alone tell only the bases. k = constrained ethyl (cEt); [5mC] = 5-methylcytosine; d = 2'-deoxy (DNA); m = 2'-O-methyl
RECORDED ENDPOINT: YAP1 (% UT)
Answers are plain numbers, in % UT.

Worked cases, answers included:
[
  {
    "SUBSTANCE": "1197299 (kA*kG*kG*dA*mU*dG*d[5mC]*dA*dT*dG*dG*dT*dT*kT*kT*kT; antisense) [Compound 1197299]",
    "YAP1 (% UT)": 41
  },
  {
    "SUBSTANCE": "1197314 (kA*kA*kA*dG*mU*dG*dT*dA*dT*dG*dT*d[5mC]*dA*kG*kA*kA; antisense) [Compound 1197314]",
    "YAP1 (% UT)": 22
  },
  {
    "SUBSTANCE": "1197254 (antisense kT*kT*kA*dG*mG*dA*dT*dG*d[5mC]*dA*dT*dG*dG*kT*kT*kT) [Compound 1197254]",
    "YAP1 (% UT)": 51
  },
  {
    "SUBSTANCE": "1197304 (k[5mC]*kT*k[5mC]*dT*mU*dA*dT*dA*dT*dG*dG*dT*dT*kT*kT*kG; antisense) [Compound 1197304]",
    "YAP1 (% UT)": 45
  },
  {
    "SUBSTANCE": "1197269 (kT*kA*kA*dA*mG*dT*dG*dT*dA*dT*dG*dT*d[5mC]*kA*kG*kA) [Compound 1197269]",
    "YAP1 (% UT)": 3
  }
]

Need YAP1 (% UT) for each of these substances.
1. 1197279 (kT*kT*kA*dG*mA*d[5mC]*dT*dA*dA*dG*dT*dA*dA*kG*kG*kT) [Compound 1197279]
2. 1197313 (kA*kG*kT*dG*mU*dA*dT*dG*dT*d[5mC]*dA*dG*dA*kA*kG*kA; antisense) [Compound 1197313]

Response line:
1. 54
2. 8

---

- TEST METHOD NOTES: Cynomolgus monkey tolerability, kidney and liver function markers (Example 34)
- TEST CONDITIONS: cynomolgus monkeys, 35 mg/kg subcutaneously, day 44
RECORDED ENDPOINT: GLO (g/dL)
Give bare numbers, in g/dL.

Some solved entries appear below for comparison.
[
  {
    "SUBSTANCE": "958499 (ATTAGAGTATGTGGCA; 3-10-3 cEt gapmer, further chemistry not given here) [compound 958499]",
    "GLO, g/dL": 3.2
  },
  {
    "SUBSTANCE": "1198872 (TGTATGTCAGAAGAGT; chemically modified gapmer, further chemistry not given here) [compound 1198872]",
    "GLO, g/dL": 3.1
  },
  {
    "SUBSTANCE": "1198623 (CTAAGTAAGGTTTCCC; modified gapmer, further chemistry not given here) [compound 1198623]",
    "GLO, g/dL": 3.0
  },
  {
    "SUBSTANCE": "1198605 (GTAATATTGCAATCTG; modified gapmer, further chemistry not given here) [compound 1198605]",
    "GLO, g/dL": 2.7
  },
  {
    "SUBSTANCE": "1198831 (CACTTTTACATTAGGA; chemically modified gapmer, further chemistry not given here) [compound 1198831]",
    "GLO, g/dL": 2.8
  }
]

// switching to the query substance
Note to self: GLO recorded for 1076453 (GTAATATTGCAATCTG; 3-10-3 cEt gapmer, further chemistry not given here) [compound 1076453] was 3.1

---

- Tested on: Yap1 mRNA
- TEST METHOD NOTES: Antisense inhibition of human Yap1 in A-431 cells by cEt gapmers, single dose (Example 2, RTS4814)
- Format: cell-based
- TEST CONDITIONS: A-431 cells, 5,000 cells per well, free uptake, 2,000 nM modified oligonucleotide, approx. 48 hours, RTS4814, normalized to RIBOGREEN; Table 4; asterisk (*) = targets amplicon region of primer probe set
Strand notation (5' to 3'): a small letter for the sugar, then the base; units joined by * are phosphorothioate-linked, units joined directly phosphodiester-linked; [ ] holds rarer units or linkages, { } end groups; capitals alone tell only the bases. k = constrained ethyl (cEt); [5mC] = 5-methylcytosine; d = 2'-deoxy (DNA)
Decide by YAP1 (% UTC): equal to or exceeding 60 % UTC means true (1), less means false (0).

Illustrative cases are given below, each with its answer.
[
  {
    "SUBSTANCE": "716493 (kA*k[5mC]*kA*dT*dT*dG*dA*dA*dA*dG*dA*d[5mC]*d[5mC]*k[5mC]*kT*kT; antisense) [Compound 716493]",
    "CLASSIFICATION": "false (0)"
  },
  {
    "SUBSTANCE": "716364 (k[5mC]*kG*k[5mC]*d[5mC]*dG*d[5mC]*dG*dG*dG*dT*dG*d[5mC]*d[5mC]*kG*kG*kT; antisense) [Compound 716364]",
    "CLASSIFICATION": "true (1)"
  },
  {
    "SUBSTANCE": "716499 (kT*kT*kT*dT*dG*d[5mC]*d[5mC]*d[5mC]*dT*d[5mC]*d[5mC]*dT*d[5mC]*k[5mC]*kA*kA; antisense) [Compound 716499]",
    "CLASSIFICATION": "true (1)"
  },
  {
    "SUBSTANCE": "716556 (kG*k[5mC]*kA*dT*dT*dA*dA*dA*dG*dA*dA*dT*dT*k[5mC]*kT*k[5mC]; antisense) [Compound 716556]",
    "CLASSIFICATION": "false (0)"
  },
  {
    "SUBSTANCE": "716388 (kA*kG*kA*dG*dG*dT*dG*dG*dT*d[5mC]*dT*dT*dG*kT*kT*k[5mC]; antisense) [Compound 716388]",
    "CLASSIFICATION": "false (0)"
  }
]

Prompt line: Could you tell me if the measured YAP1 (% UTC) of 716445 (kG*kT*kA*dT*dG*dT*dG*dG*d[5mC]*dA*dA*dT*dA*kA*kT*kT; antisense) [Compound 716445] reaches 60 % UTC or more?
Response line: false (0)
